read-out: CYP3A5 (gene 1577); assay: LTEA_HepaRG_CYP3A5: Life Technologies and Expression Analysis (LTEA) Assay for CYP3A5 using HepaRG (AID 2283493); details: mRNA level, 48 h; actives raise or lower the signal
Active and inactive are the calls of the source. Rule for the calls: active = hit-call score of the fitted dose curve at least 0.9, where 1 is the maximum; inactive = score below 0.9.
Response enum: t = active, f = inactive

Previously resolved entries follow.
# COMPOUND, LABEL VALUE
records = [
    ("Nc1c(Cl)c(F)nc(OCC(=O)O)c1Cl", "f"),
    ("CS(=O)(=O)c1cc(C(F)(F)F)ccc1C(=O)c1cnoc1C1CC1", "f"),
    ("CC(C)N1C(=O)N(c2ccccc2)CSC1=NC(C)(C)C", "f"),
    ("CCCCOCN(C(=O)CCl)c1c(CC)cccc1CC", "f"),
    ("CCNP(=S)(OC)O/C(C)=C/C(=O)OC(C)C (stereo unspecified)", "f"),
]

Task: Entry CC(C)C1(C)N=C(c2ncccc2C(=O)O)NC1=O (stereo unspecified) : call = ?
Output: f

Task: Entry CSC(=O)c1c(C(F)F)nc(C(F)(F)F)c(C(=O)SC)c1CC(C)C : call = ?
Output: f

Task: Entry CC1(C)CON(Cc2ccccc2Cl)C1=O : call = ?
Output: f

Task: Entry O=C(Nc1ccccc1-c1ccc(Cl)cc1)c1cccnc1Cl : call = ?
Output: f
